Readings of protein stability index for the listed sequences
Experiment: protein stability index of a GFP-peptide fusion (GPS, HEK-293T) (PSI 1-6); higher = more stable;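 further: 24-mer peptide tiles fused after GFP, lentivirally expressed, FACS-sorted into six equal bins by GFP/DsRed ratio, decoded by Illumina sequencing, PSI is the read-weighted mean bin number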
Settings: treatment: MLN4924 1 uM, 8 h; c terminus: a fixed tail appended
No unit in the answer, please; the number alone is enough.

Use these answered entries as a reference point.
EVYYAKKKRRAQQAPPQDSSNKKE [DYRK1B] | 4.77
VLLNSLQQYRQDQRDGSKSEDELD [CCND2] | 4.15

Complete the entry with protein stability index for RYLVGEHQADLEVANRHGHTCLMI [FEM1A] 2.38

* * *

Readings of protein stability index for the listed sequences
Assay: protein stability index of a GFP-peptide fusion (GPS, HEK-293T) (PSI 1-6); higher = more stable
Settings: treatment: DMSO; c terminus: a fixed tail appended
No unit in the answer, please; the number alone is enough.

Use these answered entries as a reference point.
SFSEETEKKFEHFSGLLNNQLSPQ [LOXL2] | 4.09
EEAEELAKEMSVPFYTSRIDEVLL [GFOD1] | 3.83
GPRPPAGELGSIGDHERAIDFSPY [CEBPB] | 4.15
SSEDYRQLELVILQSEPHRAGVQW [KCNK9] | 2.41
GSGQNEESPRKRKKATEAIDSLRK [FBXO28] | 5.11

Complete the entry with protein stability index for TIYGKTFRVVDCDQFTQVFLESQG [EFHC1] 2.19

Complete the entry with protein stability index for RDKILTATIENNRVILEIDNARLA [KRT13] 2.69

Complete the entry with protein stability index for TPDTRHPCSLGSSLVADYSDSESE [YJU2B] 5.39

Complete the entry with protein stability index for PESKEPVEKEEEPDPEPPPVTPQV [SMG5] 5.54

Complete the entry with protein stability index for EILNFNQYYEACRKAAKSLIKLGL [ACSBG2] 1.91

Complete the entry with protein stability index for PAQSGILSDREVVNLFLHFTVNPK [BTBD1] 1.84

Complete the entry with protein stability index for TFQNSVFVATFLRYAVVLNATWLV [SCD] 3.01

* * *

Assay: protein stability index of a GFP-peptide fusion (GPS, HEK-293T) (PSI 1-6); higher = more stable
Conditions: treatment: DMSO; c terminus: a fixed tail appended
measured-quantity: protein stability index
No unit in the answer, please; the number alone is enough.

Use these answered entries as a reference point.
MTTLTHRARRTEISKNSEKKMESE [GOLPH3L] | 5
LESLPTDPLLLILSFLDYRDLINC [FBXO3] | 2.84
FKMLDPDGKGKINKEYIKRLLMSQ [MYL5] | 2.41
FPRMLLVDRLPGLQGALDLLAVLC [ZSWIM9] | 2.29
HQTLKCSALATQYMHCVNHAKQSM [CHCHD3] | 2.1
EVKGTLEGDVCGVEPPGPGDTVVQ [PBXIP1] | 5.48

Complete the entry with protein stability index for AANEQLTRAILRERICSEEERAKA [CHCHD3] 4.82

Complete the entry with protein stability index for TLPPASRFIIIFEQIRFVMKAHSF [SOAT1] 2.31

Complete the entry with protein stability index for LEDGFYLTAFICFLVFILNAGLVW [MFSD9] 3.23

Complete the entry with protein stability index for QAAKQIKDGVTMAPAFRLSLKAKV [FSD1] 3

Complete the entry with protein stability index for KGDVEEVQGPGVVGEFPIISPGRV [FBXO3] 4.81

Complete the entry with protein stability index for REENEKLRLENSSLFSQALKDEEA [CCDC89] 5.41
